target: STAT3 (Homo sapiens); construct: endogenous in cells; host or cells: MOLM-16 (acute leukemia cells); experiment: Fluorescent immunoblotting of STAT3 protein in MOLM-16 cells (estimated DC50); format: cell-based; conditions: MOLM-16, 4 h
Sequence (P40763 whole entry): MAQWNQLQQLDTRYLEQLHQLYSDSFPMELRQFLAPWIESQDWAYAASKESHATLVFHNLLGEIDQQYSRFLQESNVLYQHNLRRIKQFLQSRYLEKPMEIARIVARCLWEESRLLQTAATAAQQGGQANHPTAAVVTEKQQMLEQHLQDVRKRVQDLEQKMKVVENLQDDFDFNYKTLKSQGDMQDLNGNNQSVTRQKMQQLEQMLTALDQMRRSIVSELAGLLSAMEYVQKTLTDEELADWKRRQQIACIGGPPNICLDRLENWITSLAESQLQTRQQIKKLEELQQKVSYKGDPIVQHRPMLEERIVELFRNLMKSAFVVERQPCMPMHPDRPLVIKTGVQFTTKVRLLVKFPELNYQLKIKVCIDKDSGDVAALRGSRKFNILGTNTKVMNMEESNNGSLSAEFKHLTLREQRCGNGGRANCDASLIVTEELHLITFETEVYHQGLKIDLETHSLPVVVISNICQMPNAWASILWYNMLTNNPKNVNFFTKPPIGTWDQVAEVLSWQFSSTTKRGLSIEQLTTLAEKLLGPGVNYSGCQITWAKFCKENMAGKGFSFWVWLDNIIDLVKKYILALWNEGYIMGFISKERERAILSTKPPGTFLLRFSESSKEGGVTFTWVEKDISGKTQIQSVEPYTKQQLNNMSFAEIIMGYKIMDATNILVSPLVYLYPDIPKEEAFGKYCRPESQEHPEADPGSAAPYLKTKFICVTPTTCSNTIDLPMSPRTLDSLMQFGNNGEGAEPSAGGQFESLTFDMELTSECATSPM
measurement_type: DC50 (nM)
Write the value in nM as a bare number.

Query: Please indicate DC50 recorded for NC(=O)CC[C@H](NC(=O)[C@@H]1CC[C@@H]2CCN(C(=O)CCCCCC#Cc3cccc4c3CN(C3CCC(=O)NC3=O)C4=O)C[C@H](NC(=O)c3cc4cc(C(F)(F)P(=O)(O)O)ccc4s3)C(=O)N21)c1ncc(-c2ccccc2F)s1 (some centres unmarked)
Response: 50

Query: Please supply the value of reported DC50 for the item CC(C)(C)c1cnc([C@H](CCC(N)=O)NC(=O)[C@@H]2CC[C@@H]3CCN(C(=O)CCCCCC#Cc4cccc5c4CN(C4CCC(=O)NC4=O)C5=O)C[C@H](NC(=O)c4cc5cc(C(F)(F)P(=O)(O)O)ccc5s4)C(=O)N32)s1 (some centres unmarked)
Response: 500
